- EXPERIMENT_NOTES: Compound was tested for the inhibitory activity against Sigma opioid receptor by using [3H](+)-3-PPP as radioligand in guinea pig brain
READOUT_TYPE: Ki (nM)
Quick note: give the figure in nM, leave out the unit.

INPUT_SMILES | Ki, nM
CCN(CCc1ccc(Cl)c(Cl)c1)[C@@H]1CCCC[C@@H]1N1CCCC1 | 3.5

Here is another molecule to look at.
Req: Reported Ki, molecule "CN(Cc1ccc(Cl)c(Cl)c1)[C@H]1CCCC[C@H]1N1CCCC1" : ____
Resp: 1.2
